- target_of_assay: Galectin-7 (Homo sapiens, UniProt P47929)
- Sequence (P47929 whole entry): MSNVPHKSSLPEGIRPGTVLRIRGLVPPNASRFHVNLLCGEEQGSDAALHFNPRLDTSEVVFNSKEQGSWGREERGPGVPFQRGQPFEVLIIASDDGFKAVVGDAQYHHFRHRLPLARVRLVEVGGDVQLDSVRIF
- protocol_text: Binding affinity at recombinant human Galectin 7 expressed in Escherichia coli BL21 incubated for 5 mins by fluorescence anisotropy assay
- conditions: read-out: Kd
pKd: −log10 of the molar value.
// label = class 1 if pKd is not less than 4, otherwise class 0

chemical_string=COc1ccc(N[C@@H]2[C@@H](O)[C@@H](Sc3ccc(Cl)c(Cl)c3)O[C@H](CO)[C@@H]2O)cc1 target_of_assay="Galectin-7 (Homo sapiens, UniProt P47929)" assigned_label="class 1"
chemical_string=CO[C@@H]1O[C@H](CO)[C@H](O)[C@H](Nc2cccc(Cl)c2)[C@H]1O target_of_assay="Galectin-7 (Homo sapiens, UniProt P47929)" assigned_label="class 0"
chemical_string=OC[C@H]1O[C@H](Sc2ccc(Cl)c(Cl)c2)[C@H](O)[C@@H](Nc2cccc(Cl)c2)[C@H]1O target_of_assay="Galectin-7 (Homo sapiens, UniProt P47929)" assigned_label="class 1"
chemical_string=COc1cccc(N[C@@H]2[C@@H](O)[C@@H](Sc3ccc(Cl)c(Cl)c3)O[C@H](CO)[C@@H]2O)c1 target_of_assay="Galectin-7 (Homo sapiens, UniProt P47929)" assigned_label="class 1"
chemical_string=COc1ccc(N[C@H]2[C@@H](O)[C@@H](CO)O[C@@H](OC)[C@@H]2O)cc1 target_of_assay="Galectin-7 (Homo sapiens, UniProt P47929)" assigned_label="class 0"

====

- target_of_assay: Galectin-4 (Homo sapiens)
- Sequence (P56470 whole entry): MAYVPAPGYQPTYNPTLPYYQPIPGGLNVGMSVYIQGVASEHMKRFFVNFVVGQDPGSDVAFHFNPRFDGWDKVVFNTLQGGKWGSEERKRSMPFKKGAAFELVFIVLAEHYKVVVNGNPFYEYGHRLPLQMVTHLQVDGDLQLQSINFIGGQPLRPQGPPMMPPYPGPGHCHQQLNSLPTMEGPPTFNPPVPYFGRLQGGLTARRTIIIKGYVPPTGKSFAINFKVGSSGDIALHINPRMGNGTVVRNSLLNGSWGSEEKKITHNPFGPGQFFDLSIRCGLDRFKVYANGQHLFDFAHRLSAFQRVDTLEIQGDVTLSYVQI
- protocol_text: Binding affinity at recombinant human C-terminal Galectin 4 expressed in Escherichia coli BL21 incubated for 5 mins by fluorescence anisotropy assay
- conditions: read-out: Kd
Overview of recorded Kd for various molecules
reported_metric: Kd (µM)

chemical_string=COc1cccc(N[C@H]2[C@@H](O)[C@@H](CO)O[C@@H](OC)[C@@H]2O)c1 reported_metric=Kd display_unit=µM recorded_number=2400
chemical_string=COc1ccc(N[C@H]2[C@@H](O)[C@@H](CO)O[C@@H](OC)[C@@H]2O)cc1 reported_metric=Kd display_unit=µM recorded_number=1300
chemical_string=CO[C@@H]1O[C@H](CO)[C@H](O)[C@H](Nc2ccc(F)c(F)c2)[C@H]1O reported_metric=Kd display_unit=µM recorded_number=1800
chemical_string=CO[C@@H]1O[C@H](CO)[C@H](O)[C@H](Nc2cccc(Cl)c2)[C@H]1O reported_metric=Kd display_unit=µM recorded_number=1400
chemical_string=CO[C@@H]1O[C@H](CO)[C@H](O)[C@H](Nc2cccc(C)c2)[C@H]1O reported_metric=Kd display_unit=µM recorded_number=1000

====

- target_of_assay: Galectin-9 (Homo sapiens, UniProt O00182)
- Sequence (O00182 whole entry): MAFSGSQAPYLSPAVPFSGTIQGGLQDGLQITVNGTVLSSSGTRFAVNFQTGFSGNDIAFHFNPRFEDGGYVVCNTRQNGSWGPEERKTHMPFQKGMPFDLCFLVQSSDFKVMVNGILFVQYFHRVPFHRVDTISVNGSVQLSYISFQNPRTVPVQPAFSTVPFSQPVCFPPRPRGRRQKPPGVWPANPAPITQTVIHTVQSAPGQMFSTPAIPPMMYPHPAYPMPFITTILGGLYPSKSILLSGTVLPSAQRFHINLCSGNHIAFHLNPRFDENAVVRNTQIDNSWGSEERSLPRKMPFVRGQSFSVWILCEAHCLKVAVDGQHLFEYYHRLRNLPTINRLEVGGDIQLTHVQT
- protocol_text: Binding affinity at recombinant human N-terminal Galectin 9 expressed in Escherichia coli BL21 incubated for 5 mins by fluorescence anisotropy assay
- conditions: read-out: Kd
Overview of recorded Kd for various compounds
reported_metric: Kd

chemical_string=CO[C@@H]1O[C@H](CO)[C@H](O)[C@@H](Nc2cccc(Cl)c2)[C@H]1O reported_metric=Kd result="670 µM"
chemical_string=COc1cccc(N[C@@H]2[C@@H](O)[C@@H](Sc3ccc(Cl)c(Cl)c3)O[C@H](CO)[C@@H]2O)c1 reported_metric=Kd result="14 µM"
chemical_string=CO[C@@H]1O[C@H](CO)[C@H](O)[C@@H](Nc2ccc(C)cc2)[C@H]1O reported_metric=Kd result="590 µM"
chemical_string=CO[C@@H]1O[C@H](CO)[C@H](O)[C@@H](Nc2ccc(F)c(F)c2)[C@H]1O reported_metric=Kd result="1100 µM"
chemical_string=COc1cccc(N[C@H]2[C@@H](O)[C@@H](Sc3ccc(Cl)c(Cl)c3)O[C@H](CO)[C@@H]2O)c1 reported_metric=Kd result="40 µM"
